- measured on: Indoleamine 2,3-dioxygenase 1 (Homo sapiens)
- procedure summary: Uncompetitive inhibition of human recombinant IDO1 using L-tryptophan as substrate
Each entry below carries its reported pIC50.
Interpret pIC50 as the negative base-10 log of the concentration measured in mol/L.

smiles structure	result value
O=C1c2ccc(Cl)cc2-n2c1nc1ccccc1c2=O	4.13
O=C1c2c(Cl)cccc2-n2c1nc1ccccc1c2=O	5.09
O=C1c2cc([N+](=O)[O-])ccc2-n2c1nc1ccccc1c2=O	6.99
O=C1c2cc(F)ccc2-n2c1nc1ccccc1c2=O	6.27
O=C1c2cc(F)ccc2-n2c1nc1ccc(F)cc1c2=O	5.57
O=C1c2ccccc2N[C@H]2[C@H](O)c3cc(F)ccc3N12	5.21

Lookup: Form field: reported pIC50 of O=C1c2cc(Br)ccc2-n2c1nc1ccccc1c2=O
Found: 6.24

Lookup: Quick check: pIC50 of O=C1c2ccccc2N[C@H]2[C@H](O)c3ccccc3N12 ?
Found: 4.80

====

- measured on: UniProt:P14902
- procedure summary: Uncompetitive inhibition of human recombinant IDO1 using L-tryptophan as substrate
Each record here notes measured Ki.
State the answer as a number, implicitly in µM.

Please review the entries below; each comes with its answer.
smiles structure	result value
O=C1c2c(Cl)cccc2-n2c1nc1ccccc1c2=O	9.65
O=C1c2cc([N+](=O)[O-])ccc2-n2c1nc1ccccc1c2=O	0.054
O=C1c2cc(Br)ccc2-n2c1nc1ccccc1c2=O	0.389
O=C1c2cc(F)ccc2-n2c1nc1ccccc1c2=O	0.161
O=C1c2cc(F)ccc2-n2c1nc1ccc(F)cc1c2=O	5.48

Lookup: Requested field: Ki. Item: O=C1c2ccccc2N[C@H]2[C@H](O)c3cc(F)ccc3N12
Found: 4.54

Lookup: May I ask what Ki has been recorded for O=C1c2ccccc2N[C@H]2[C@H](O)c3ccccc3N12 ?
Found: 8.58

Lookup: // Ki lookup, key: O=C1c2ccc(Cl)cc2-n2c1nc1ccccc1c2=O
Found: 49.4

====

// reported pIC50 per item
- measured on: Indoleamine 2,3-dioxygenase 1 (Homo sapiens, UniProt P14902)
- Sequence (P14902 whole entry): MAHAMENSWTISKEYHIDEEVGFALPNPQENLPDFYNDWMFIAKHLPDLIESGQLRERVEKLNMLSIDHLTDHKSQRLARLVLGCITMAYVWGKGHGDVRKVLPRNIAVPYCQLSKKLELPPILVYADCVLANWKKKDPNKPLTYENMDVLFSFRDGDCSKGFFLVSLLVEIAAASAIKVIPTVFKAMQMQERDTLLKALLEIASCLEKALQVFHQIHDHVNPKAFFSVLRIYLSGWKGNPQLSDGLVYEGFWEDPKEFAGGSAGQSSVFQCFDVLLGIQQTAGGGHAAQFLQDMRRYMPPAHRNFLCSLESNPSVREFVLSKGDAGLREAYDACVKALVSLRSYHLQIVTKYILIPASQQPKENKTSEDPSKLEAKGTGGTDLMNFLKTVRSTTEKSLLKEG
- procedure summary: Mixed competitive inhibition of human recombinant IDO1 using L-tryptophan as substrate
Just the number, please; pIC50 means minus log10 of the concentration in mol/L.

molecule	result value
Cc1ccc2c(c1)C(=O)c1nc3ccccc3c(=O)n1-2	3.92

Lookup: Form field: reported pIC50 of O=C1c2ccccc2-n2c1nc1ccccc1c2=O [TRYPTANTHRIN]
Found: 5.15

====

- measured on: Indoleamine 2,3-dioxygenase 1 (Homo sapiens)
- procedure summary: Inhibition of human IDO1 expressed in HEK293 cells assessed as kynurenine release after 5 hrs by spectrophotometry
- Format: cell-based
test readout: pIC50
Give only the number. pIC50 is defined as minus log10 of concentration in molar units.

Please review the following examples before continuing.
smiles structure	result value
O=C1c2cc(Br)ccc2-n2c1nc1ccccc1c2=O	7.27
O=C1c2cc(F)ccc2-n2c1nc1ccc(F)cc1c2=O	6.33
O=C1c2cc(F)ccc2-n2c1nc1ccccc1c2=O	7.64
O=C1c2ccccc2-n2c1nc1ccccc1c2=O	7.27
O=C1c2ccccc2N[C@H]2[C@H](O)c3ccccc3N12	6.11
O=C1c2c(Cl)cccc2-n2c1nc1ccccc1c2=O	7.57
O=C1c2ccc(Cl)cc2-n2c1nc1ccccc1c2=O	6.74

Now for another entry.
Lookup: Entry under review: O=C1c2ccccc2N[C@H]2[C@H](O)c3cc(F)ccc3N12 . Reported pIC50?
Found: 7.61

====

- measured on: UniProt P14902
- procedure summary: Mixed competitive inhibition of human recombinant IDO1 using L-tryptophan as substrate
test readout: pKi
Convention used: pKi is expressed as -log10 of the molar concentration.

compound	pKi
Cc1ccc2c(c1)C(=O)c1nc3ccccc3c(=O)n1-2	3.66

We next turn to a different compound, shown below.
Lookup: For O=C1c2ccccc2-n2c1nc1ccccc1c2=O [TRYPTANTHRIN] , what is its reported pKi?
Found: 5.32

// provenance: ChEMBL document CHEMBL3085691
